In this section, each of the binders is paired with its reported koff.
Target: T1, Human IL2Rγ extracellular domain expressed with a C-terminal mouse IgG2a Fc tag (human)
T1 construct: whole entry is the Fc-fused construct; also called hIL-2Rg-mFc
T1 chain: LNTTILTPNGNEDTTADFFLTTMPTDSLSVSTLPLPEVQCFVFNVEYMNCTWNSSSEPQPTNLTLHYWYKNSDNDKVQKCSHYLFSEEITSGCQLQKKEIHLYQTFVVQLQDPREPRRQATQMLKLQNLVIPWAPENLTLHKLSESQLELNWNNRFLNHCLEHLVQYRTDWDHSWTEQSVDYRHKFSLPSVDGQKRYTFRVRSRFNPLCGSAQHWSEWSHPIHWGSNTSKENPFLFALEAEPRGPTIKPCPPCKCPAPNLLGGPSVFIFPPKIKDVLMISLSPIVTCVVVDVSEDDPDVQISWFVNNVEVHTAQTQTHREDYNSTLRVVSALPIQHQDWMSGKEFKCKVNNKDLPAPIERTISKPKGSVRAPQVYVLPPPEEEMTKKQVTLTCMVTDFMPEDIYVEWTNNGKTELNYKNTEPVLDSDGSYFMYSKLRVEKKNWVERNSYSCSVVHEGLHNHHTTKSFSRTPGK
Test: SPR Biacore 4000, anti-hFc-captured mAb, 37 C
Only the number, expressed in s⁻¹, is required.

Reference set, count: 2
BINDER	koff (s⁻¹)
H4H12858P (antibody, human IgG4 S228P, kappa, V domains shown, fully human anti-IL2Rgamma mAb, human IgG4 Fc; also called REGN9433) VH: EVQLVESGGDLVQPGGSLRLSCTASGFIFRNYAMNWVRQAPGKGLEWLSGILGSNDNTYYVDSVKGRFTISRDNSRNTLYLQMNSLRAEDSAVYYCAKGDAGGFDYWGQGTLVTVSS VL: DVVMTQSPLSLPVILGQPASISCRSSQSLVSSDGNTYLNWFQQRPGQSPRRLIYKVSNRDSGVPDRFSGSGSGTDFTLKISRVEAEDVGAYYCMQGSYWPPTFGQGTKLEIKR	0.00025
H4H13538P (antibody, human IgG4 S228P, kappa, V domains shown, fully human anti-IL2Rgamma mAb, human IgG4 Fc) VH: EVQLVESGGGLVQPGGSLGLSCAASGFTFSNYAMSWVRQAPGKGLEWVSAVSGGGGGTYYADSVKGRFTISRDNSKNTVLLQMNSLRAEDTAVYYCARGRTGGLDYWGPGTLVTVSS VL: DVVMTQSPLSLPVIFGQPASISCRSSQSLVDSDGNTYLNWLQQRPGQSPRRLIYEVSNRDSGVPDRFSGSGSGTDFTLTISRVEAEDVGIYYCMQGTRWPPTFGGGTKVEIKR	0.000187

Continue with the binder presented below.
koff lookup needed for H4H12871P (antibody, human IgG4 S228P, kappa, V domains shown, fully human anti-IL2Rgamma mAb, human IgG4 Fc; also called REGN9434) VH: QVQLQESGPGLVKPSQTLSLTCTVSGGSITSGGYYWSWIRQYPGQGLEWIGYIYYSGKTYYNPSFTSRITISVDTSKKQFSLKMSSVTAADTAVYYCARAGFTSSNGWFDPWGQGTLVTVSS VL: DIQMTQSPSSLSASVGDRVTITCRASQNIRSYLNWYQQKPGKAPKLLIYSASSLQSGVPSRFSGSGSGTDFTLTISSLQPEDFPTYYCQQTYSSPWTFGPGTKVEIKR , thanks. 2.39e-05
